test.target: human mAChRM1 (Homo sapiens)
Construct: host or cells: CHO-K1
Sequence (P11229 whole entry): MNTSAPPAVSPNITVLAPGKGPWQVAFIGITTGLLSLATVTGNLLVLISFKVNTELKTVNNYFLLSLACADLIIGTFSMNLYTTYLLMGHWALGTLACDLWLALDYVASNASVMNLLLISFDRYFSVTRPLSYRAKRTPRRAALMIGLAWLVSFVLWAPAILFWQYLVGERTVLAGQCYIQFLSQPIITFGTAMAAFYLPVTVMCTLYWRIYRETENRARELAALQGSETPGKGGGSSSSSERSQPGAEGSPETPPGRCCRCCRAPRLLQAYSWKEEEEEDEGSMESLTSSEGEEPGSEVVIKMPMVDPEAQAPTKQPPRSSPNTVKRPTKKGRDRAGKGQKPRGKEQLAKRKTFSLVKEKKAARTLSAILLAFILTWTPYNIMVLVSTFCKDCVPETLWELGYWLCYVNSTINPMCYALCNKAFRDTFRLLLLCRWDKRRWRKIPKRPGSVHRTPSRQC
assay.explanation: mAChR M1 cell-based functional assay (calcium mobilization), positive allosteric modulator activity: increase in the EC20 acetylcholine response
reported.conditions: PAM mode
Reported Emax values for the following molecules.

molecule: Cn1cc2cc(-c3cc(F)c(CN4Cc5ncccc5C4=O)c(C4CC4)c3)cc(C(C)(C)O)c2n1 [Compound 88]
Emax / %: 82
//
molecule: Cn1cc2c(C(C)(C)O)cc(-c3ccc(CN4Cc5ncccc5C4=O)c(F)c3)cc2n1 [Compound 21]
Emax / %: 50
//
molecule: Cn1cc2c(-c3cnc(CN4Cc5ncccc5C4=O)nc3)ccc(C(C)(C)O)c2n1 [Compound 110]
Emax / %: 43
//
molecule: Cn1cc2c(-c3cc(F)c(CN4Cc5ncccc5C4=O)c(F)c3)ccc(C3(O)CCC(C#N)CC3)c2n1 (stereo not shown) [Compound 101]
Emax / %: 86
